Listing: IC50 of selected compounds
- test_system: Recombinant human MAO-B (Homo sapiens, UniProt P27338)
- Sequence (P27338 1-520): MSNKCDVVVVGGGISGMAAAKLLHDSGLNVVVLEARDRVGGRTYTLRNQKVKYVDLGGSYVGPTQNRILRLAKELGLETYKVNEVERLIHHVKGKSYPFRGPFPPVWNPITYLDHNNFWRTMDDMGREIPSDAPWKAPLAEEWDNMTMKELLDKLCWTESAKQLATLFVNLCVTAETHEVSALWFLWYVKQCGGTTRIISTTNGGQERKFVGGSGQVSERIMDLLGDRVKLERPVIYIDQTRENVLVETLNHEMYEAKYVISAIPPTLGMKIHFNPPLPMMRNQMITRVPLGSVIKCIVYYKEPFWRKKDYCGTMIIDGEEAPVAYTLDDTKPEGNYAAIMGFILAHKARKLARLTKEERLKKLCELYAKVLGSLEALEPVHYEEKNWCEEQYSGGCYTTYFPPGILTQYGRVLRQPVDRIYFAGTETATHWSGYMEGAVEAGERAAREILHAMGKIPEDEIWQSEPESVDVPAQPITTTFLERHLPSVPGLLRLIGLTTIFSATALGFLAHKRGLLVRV
- assay_text: Inhibitory activity on MAO-B (MAO-Glo assay)
- condition: recombinant human MAO-B 300 nM; compound 100 μM to 5 nM

Exercise: Query: IC50; subject: COCC1(O)CCN(c2ncc(OC/C(=C/F)CN)cn2)CC1 [Example 2]
Solution: > 20 µM

Okay, next one:
Exercise: Query: IC50; subject: CC1(O)CCN(c2ncc(OC/C(=C/F)CN)cn2)CC1 [Example 1]
Solution: > 20 µM

* * *

Listing: IC50 of selected compounds
- test_system: Recombinant human SSAO protein (Homo sapiens)
- Construct: Eli Lilly (provided, not purchased)
- Sequence (Q16853 whole entry): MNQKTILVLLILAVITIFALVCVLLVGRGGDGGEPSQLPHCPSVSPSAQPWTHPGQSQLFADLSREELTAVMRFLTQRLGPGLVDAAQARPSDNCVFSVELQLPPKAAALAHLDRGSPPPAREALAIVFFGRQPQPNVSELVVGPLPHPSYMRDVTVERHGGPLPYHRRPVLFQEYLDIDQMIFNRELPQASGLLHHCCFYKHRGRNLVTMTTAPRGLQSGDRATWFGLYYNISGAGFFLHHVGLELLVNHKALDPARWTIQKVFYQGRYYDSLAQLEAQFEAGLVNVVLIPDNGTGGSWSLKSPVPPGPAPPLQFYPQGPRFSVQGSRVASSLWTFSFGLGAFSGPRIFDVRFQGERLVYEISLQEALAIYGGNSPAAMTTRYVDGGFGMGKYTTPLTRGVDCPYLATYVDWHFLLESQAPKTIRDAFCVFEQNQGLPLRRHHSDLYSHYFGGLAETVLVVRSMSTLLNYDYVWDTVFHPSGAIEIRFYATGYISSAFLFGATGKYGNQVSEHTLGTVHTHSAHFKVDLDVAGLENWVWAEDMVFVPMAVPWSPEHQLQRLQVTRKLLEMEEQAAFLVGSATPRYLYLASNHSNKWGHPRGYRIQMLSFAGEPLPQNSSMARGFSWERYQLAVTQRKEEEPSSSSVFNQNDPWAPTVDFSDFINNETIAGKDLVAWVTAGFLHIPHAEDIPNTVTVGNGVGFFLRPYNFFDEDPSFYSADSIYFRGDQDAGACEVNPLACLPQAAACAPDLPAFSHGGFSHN
- assay_text: In vitro inhibitory activity on SSAO/VAP-1 (MAO-Glo assay)
- condition: compound 1 μM to 0.05 nM

Exercise: Notebook entry, Recombinant human SSAO protein (Homo sapiens) assay: IC50 of `CC1(O)CCN(c2ncc(OC/C(=C/F)CN)cn2)CC1` = ?
Solution: < 10 nM

Okay, next one:
Exercise: Notebook entry, Recombinant human SSAO protein (Homo sapiens) assay: IC50 of `COCC1(O)CCN(c2ncc(OC/C(=C/F)CN)cn2)CC1` = ?
Solution: < 10 nM

The origin of these recorded values is patent US12486244B2.
